Target: PTHR1 receptor
Sequence (P25961 whole entry): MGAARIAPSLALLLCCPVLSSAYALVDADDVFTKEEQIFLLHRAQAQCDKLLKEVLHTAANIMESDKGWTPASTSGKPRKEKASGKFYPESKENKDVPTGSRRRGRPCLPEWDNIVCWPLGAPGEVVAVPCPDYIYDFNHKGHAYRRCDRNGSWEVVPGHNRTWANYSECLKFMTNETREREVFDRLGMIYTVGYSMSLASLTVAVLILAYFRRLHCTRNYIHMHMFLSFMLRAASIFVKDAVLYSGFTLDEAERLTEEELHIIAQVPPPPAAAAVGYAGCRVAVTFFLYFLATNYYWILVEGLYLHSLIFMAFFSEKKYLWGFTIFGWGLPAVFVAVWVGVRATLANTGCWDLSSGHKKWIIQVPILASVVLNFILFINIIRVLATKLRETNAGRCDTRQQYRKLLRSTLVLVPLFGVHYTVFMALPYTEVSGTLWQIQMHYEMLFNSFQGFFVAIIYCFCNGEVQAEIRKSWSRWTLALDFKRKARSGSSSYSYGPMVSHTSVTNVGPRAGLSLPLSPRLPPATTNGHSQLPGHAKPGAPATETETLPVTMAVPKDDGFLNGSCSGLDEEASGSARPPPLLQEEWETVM
* marks the point of attachment. Palmitoyl = CCCCCCCCCCCCCCCC(=O)*

binder | Inhibition of Maximal Response [%]
Palmitoyl-RSDTRQQYRKLLKS-NH2 (SMILES CCCCCCCCCCCCCCCC(=O)N[C@@H](CCCNC(=N)N)C(=O)N[C@@H](CO)C(=O)N[C@@H](CC(=O)O)C(=O)N[C@H](C(=O)N[C@@H](CCCNC(=N)N)C(=O)N[C@@H](CCC(N)=O)C(=O)N[C@@H](CCC(N)=O)C(=O)N[C@@H](Cc1ccc(O)cc1)C(=O)N[C@@H](CCCNC(=N)N)C(=O)N[C@@H](CCCCN)C(=O)N[C@@H](CC(C)C)C(=O)N[C@@H](CC(C)C)C(=O)N[C@@H](CCCCN)C(=O)N[C@@H](CO)C(N)=O)[C@@H](C)O) [Compound 66] | -39
Palmitoyl-DTRQQYRKLLKS-NH2 (SMILES CCCCCCCCCCCCCCCC(=O)N[C@@H](CC(=O)O)C(=O)N[C@H](C(=O)N[C@@H](CCCNC(=N)N)C(=O)N[C@@H](CCC(N)=O)C(=O)N[C@@H](CCC(N)=O)C(=O)N[C@@H](Cc1ccc(O)cc1)C(=O)N[C@@H](CCCNC(=N)N)C(=O)N[C@@H](CCCCN)C(=O)N[C@@H](CC(C)C)C(=O)N[C@@H](CC(C)C)C(=O)N[C@@H](CCCCN)C(=O)N[C@@H](CO)C(N)=O)[C@@H](C)O) [Compound 67] | 6.9
